IC50 values, listed per item
Test system: RAW264.7
METHOD: Antiinflammatory activity in mouse RAW264.7 cells assessed as inhibition of LPS-stimulated IL-6 production preincubated for 2 hrs followed by LPS stimulaton measured after 24 hrs by ELISA
Assay type: functional, cell-based
All answers are understood in µM, so give the number only.

CCN1CCN(C(=O)/C=C/[C@@]2(C)CC[C@]3(C)CC[C@]4(C)C(=CC(=O)[C@@H]5[C@@]6(C)CC[C@H](O)C(C)(C)[C@@H]6CC[C@]54C)[C@@H]3C2)CC1 | 15.5

Then this compound:
Query string: Reported IC50 for RAW264.7, given CN1CCN(C(=O)/C=C/[C@@]2(C)CC[C@]3(C)CC[C@]4(C)C(=CC(=O)[C@@H]5[C@@]6(C)CC[C@H](O)C(C)(C)[C@@H]6CC[C@]54C)[C@@H]3C2)CC1 ?
Result string: 13.3
